- tested system: UniProtKB P08069
- Sequence (P08069 31-736 limits assumed): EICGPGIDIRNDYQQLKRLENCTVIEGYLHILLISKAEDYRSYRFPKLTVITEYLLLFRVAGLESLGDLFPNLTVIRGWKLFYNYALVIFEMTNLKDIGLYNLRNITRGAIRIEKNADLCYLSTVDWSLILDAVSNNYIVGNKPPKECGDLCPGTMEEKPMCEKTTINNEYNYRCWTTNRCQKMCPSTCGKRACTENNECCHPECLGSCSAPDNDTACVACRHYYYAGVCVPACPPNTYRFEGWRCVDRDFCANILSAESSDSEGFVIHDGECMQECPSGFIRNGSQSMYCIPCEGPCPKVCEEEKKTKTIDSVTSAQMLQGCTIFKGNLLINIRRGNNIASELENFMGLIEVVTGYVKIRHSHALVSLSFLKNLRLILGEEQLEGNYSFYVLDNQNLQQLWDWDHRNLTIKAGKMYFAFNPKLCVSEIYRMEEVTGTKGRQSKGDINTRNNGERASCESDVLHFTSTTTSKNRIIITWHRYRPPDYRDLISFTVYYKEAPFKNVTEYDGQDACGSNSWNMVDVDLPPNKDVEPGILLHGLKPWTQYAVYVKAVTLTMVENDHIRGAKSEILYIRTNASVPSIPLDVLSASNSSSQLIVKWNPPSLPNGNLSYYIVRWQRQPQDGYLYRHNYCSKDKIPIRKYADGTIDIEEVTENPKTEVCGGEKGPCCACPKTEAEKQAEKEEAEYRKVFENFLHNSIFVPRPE
- Sequence (P08069 741-1367 limits assumed): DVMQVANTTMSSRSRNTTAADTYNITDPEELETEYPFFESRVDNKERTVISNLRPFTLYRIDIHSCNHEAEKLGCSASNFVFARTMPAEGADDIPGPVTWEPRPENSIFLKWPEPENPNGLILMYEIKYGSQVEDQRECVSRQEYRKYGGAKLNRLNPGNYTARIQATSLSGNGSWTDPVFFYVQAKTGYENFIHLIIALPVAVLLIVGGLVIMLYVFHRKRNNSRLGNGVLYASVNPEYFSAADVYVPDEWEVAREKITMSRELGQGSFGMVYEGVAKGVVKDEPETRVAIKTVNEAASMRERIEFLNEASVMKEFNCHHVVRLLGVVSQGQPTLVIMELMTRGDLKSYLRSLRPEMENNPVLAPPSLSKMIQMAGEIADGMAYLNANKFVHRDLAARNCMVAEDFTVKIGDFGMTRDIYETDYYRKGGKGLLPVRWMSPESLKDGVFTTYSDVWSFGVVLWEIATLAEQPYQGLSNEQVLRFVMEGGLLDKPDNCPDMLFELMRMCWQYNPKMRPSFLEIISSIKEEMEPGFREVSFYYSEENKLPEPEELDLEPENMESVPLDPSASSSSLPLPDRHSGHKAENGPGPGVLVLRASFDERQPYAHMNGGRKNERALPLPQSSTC
- protocol notes: Inhibition of IGF1R at 1 uM
recorded metric: inhibition

1. O=C(CCCn1[se]c2ccccc2c1=O)N[C@@H]1O[C@H](CO)[C@@H](O)[C@H](O)[C@H]1O; 0%
2. O=c1c2ccccc2[se]n1-c1ccccc1; 0%
3. CC(=O)OC[C@H]1O[C@@H](NC(=O)CCCn2[se]c3ccccc3c2=O)[C@H](OC(C)=O)[C@@H](OC(C)=O)[C@@H]1OC(C)=O; 0%
4. CC(=O)OC[C@H]1O[C@@H](O[C@H]2[C@H](OC(C)=O)[C@@H](OC(C)=O)[C@H](n3[se]c4ccccc4c3=O)O[C@@H]2COC(C)=O)[C@H](OC(C)=O)[C@@H](OC(C)=O)[C@H]1OC(C)=O; 1%
